System: Her2
measurement_protocol: IC50 range for inhibition of Her2 degradation (Table 8)
Assay type: cell-based
assay_context: Homo sapiens
pIC50: −log10 of the molar value.
In this section we review reported pIC50 values for a set of molecules.

CCc1cc(-c2nnc(S)n2-c2ccc(OC)c(N(C)CC)c2)c(O)cc1O [Compound 250] :: > 5.52
Cc1cc(-c2nnc(S)n2-c2cccc3ccccc23)c(O)cc1O [Compound 63] :: > 5.52
Cc1cc(-n2c(S)nnc2-c2ccc(O)cc2O)c2ccccc2n1 [Compound 51] :: 4.00 to 5.00
COc1cccc2c(-n3c(S)nnc3-c3ccc(O)cc3O)cccc12 [Compound 39] :: > 5.52

Alright, here's another molecule for you.
Measured pIC50 of COc1ccc(-n2c(S)nnc2-c2ccc(O)cc2O)cc1 [Compound 22] : 4.00 to 5.00

###

Tested on: Her2
measurement_protocol: IC50 range for inhibition of Her2 degradation (Table 8)
Format: cell-based
assay_context: Homo sapiens
pIC50: −log10 of the molar value.
experimental_endpoint: pIC50

Cc1cccc(-n2c(S)nnc2-c2ccc(O)cc2O)c1C :: 5.00 to 5.52
CCn1cc(-c2nnc(S)n2-c2cccc3ccccc23)c(O)cc1=O :: 4.00 to 5.00
CCc1cc(-c2nnc(S)n2-c2ccc(OC)c(N(CC)CC)c2)c(O)cc1O :: > 5.52
CCc1cc(-c2n[nH]c(O)c2-c2cccc3ccccc23)c(O)cc1O :: 4.00 to 5.00
CCCOc1ccc2c(-n3c(S)nnc3-c3ccc(O)cc3O)cccc2c1 :: 5.00 to 5.52

Assay Her2, sample "CCc1cc(-c2nnc(S)n2-c2cccc3c2ncn3CC)c(O)cc1O" , pIC50 read: 4.00 to 5.00

GET /values?item= "CCc1cc(-c2nnc(S)n2-c2ccc(OC)c(C(C)(C)C)c2)c(O)cc1O" &system= Her2 returns pIC50: 4.00 to 5.00

Item "CC(=O)Oc1ccc(-c2nnc(S)n2-c2cccc3ccccc23)c(OC(C)=O)c1" was tested on Her2; the reported pIC50 is 4.00 to 5.00

# lookup: "CCc1cc(-c2nnc(S)n2-c2cccc3c(O)cccc23)c(O)cc1O" on Her2, pIC50 = > 5.52

pIC50 on Her2 for "COCCn1ccc2c(-n3c(S)nnc3-c3ccc(O)cc3O)cccc21" is > 5.52

Measured pIC50 (Her2), entry "Cc1cc(C)cc(-n2c(S)nnc2-c2ccc(O)cc2O)c1" : 4.00 to 5.00

Value sought: pIC50, system Her2, item "Oc1ccc(-c2nnc(S)n2-c2ccc(Cl)c3ccccc23)c(O)c1" . Result: 5.00 to 5.52

Her2 data for "Oc1ccc(-c2nnc(S)n2-c2cccc3c2OCCO3)c(O)c1" ; its pIC50: 5.00 to 5.52

Lab note: compound "CCc1cc(-c2nnc(S)n2-c2cccc(N(C)C)c2)c(O)cc1O" tested on Her2; recorded pIC50 was > 5.52

Fill in: Her2 pIC50 for "COCCOc1ccc(-n2c(S)nnc2-c2ccc(O)cc2O)c2ccccc12" = 5.00 to 5.52

// pIC50 (Her2) for "CCn1ccc2c(-n3c(S)nnc3-c3ccc(O)cc3O)cccc21" = > 5.52

GET /values?item= "CC(C)n1ccc2c(-n3c(S)nnc3-c3ccc(O)cc3O)cccc21" &system= Her2 returns pIC50: > 5.52

pIC50 on Her2 for "CC(C)(C)c1cc(-n2c(S)nnc2-c2ccc(O)cc2O)cc(C(C)(C)C)c1" is 4.00 to 5.00

These entries and their values trace back to patent US20080004276A1.
